This document collects pIC50 values reported for MAGL (Homo sapiens (Human)).
Please treat pIC50 as minus the base-10 logarithm of the molar concentration.

Sample C[C@H]1c2nn(C)c(-c3cc(F)cc(F)c3)c2CCN1C(=O)c1cc(F)cc(N2CC3(CCN3)C2)c1Cl , system: MAGL (Homo sapiens (Human)). Its pIC50 is 7.29

Item CC1c2nn(C)c(-c3cc(Cl)cc(S(N)(=O)=O)c3)c2CCN1C(=O)c1ncn(-c2ccc[nH]c2=O)n1 (stereo not shown) was tested on MAGL (Homo sapiens (Human)); the reported pIC50 is 5.97

So the reported pIC50 for C[C@H]1c2nn(C)c(-c3cc(F)cc(F)c3)c2CCN1C(=O)c1cc(F)cc(OC[C@@H]2CNC(=O)N2)c1Cl (single isomer, unassigned) , on MAGL (Homo sapiens (Human)), turned out to be 6.03

Entry Cc1c(C(=O)N2CCc3c(nn(C)c3-c3cc(F)cc(F)c3)C2C)cccc1N1CCNC1=O (stereo not shown) under MAGL (Homo sapiens (Human)) had pIC50 of 6.05

Per the reported MAGL (Homo sapiens (Human)) data, C[C@@H]1c2nn(C)c(-c3cc(F)cc(F)c3)c2CCN1C(=O)c1cc(F)cc(C2=CC(Cl)C(=O)N=C2)c1Cl (stereo partly shown) has pIC50 of 6.12

***
Param item: COc1cccc(C(=O)N2CCn3c(-c4cccc(Cl)c4)nnc3[C@@H]2C)c1Cl ; param system: MAGL (Homo sapiens (Human)); output pIC50: 5.62

Measured pIC50 (MAGL (Homo sapiens (Human))), entry C[C@H]1c2nn(C)c(-c3cc(Cl)cc(C4(C(N)=O)CC4)c3)c2CCN1C(=O)c1cc(F)cc(N2CC3(C2)CS(=O)(=O)C3)c1Cl : 5.91

====

This section lists log10(IC50) readings for MAGL (Homo sapiens (Human)).
Heads up: the numbers are on a log10 scale; they represent IC50 in nM.

In the examples that follow, each entry is paired with its recorded log10(IC50).
log10(IC50) for C[C@@H]1c2nn(C)c(-c3cc(Cl)cc(C4(NS(C)(=O)=O)CC4)c3)c2CCN1C(=O)c1cc(F)cc(-c2c[nH]c(C#N)c2)c1Cl [Example 86] is 3.00

Form field log10(IC50), entry C[C@H]1c2nn(C)c(-c3cc(F)cc(F)c3)c2CCN1C(=O)c1cc(Cl)cc(OC[C@@H]2CNC(=O)O2)c1Cl (single isomer, unassigned) [Example 108] : 2.47

Entry C[C@H]1c2nn(C)c(-c3cc(F)cc(F)c3)c2CCN1C(=O)c1cccc(OCC2CNC(=O)O2)c1Cl (stereo partly shown) [Example 110] , log10(IC50) reported as 0.32

GET /value?item= C[C@H]1c2nn(C)c(-c3cc(F)cc(F)c3)c2CCN1C(=O)c1ncn(-c2cc(Cl)cnc2O)n1 [Example 100] &field=log10(IC50) returns 1.50

Form: compound = C[C@H]1c2nn(C)c(-c3cc(F)cc(F)c3)c2CCN1C(=O)c1cc(F)cc(OCC2CNC(=O)C2)c1Cl (stereo in doubt) [Example 37] ; log10(IC50) = 0.70

More entries:
For this compound ( COc1cccc(C(=O)N2CCc3c(nn(C)c3-c3cc(Cl)cc(CNS(C)(=O)=O)c3)[C@H]2C)c1Cl [Example 2] ), measured log10(IC50) is 3.22

Per the records, this compound ( CC1c2nn(C)c(-c3cc(F)cc(F)c3)c2CCN1C(=O)c1cc(-c2cccc(C#N)c2)ccc1F (stereo not shown) [Example 26] ) has log10(IC50) equal to 1.92

====

target: MAGL (Homo sapiens (Human))
Sequence (Q99685 whole entry, species assumed): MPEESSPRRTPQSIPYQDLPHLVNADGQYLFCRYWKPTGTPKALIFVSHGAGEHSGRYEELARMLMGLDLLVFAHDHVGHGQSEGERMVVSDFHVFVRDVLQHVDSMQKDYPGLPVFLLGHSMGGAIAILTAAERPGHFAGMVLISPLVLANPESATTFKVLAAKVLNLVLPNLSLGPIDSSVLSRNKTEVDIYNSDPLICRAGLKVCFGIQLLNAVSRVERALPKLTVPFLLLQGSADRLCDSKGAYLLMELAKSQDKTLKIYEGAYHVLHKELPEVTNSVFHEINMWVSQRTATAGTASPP
Structures can show the parent of a compound that is named as a salt.
measureName: log10 IC50 (log10 of the value in nM)
A value of 2 here means IC50 of 100 in nM, since values are log10.

Below, 10 molecules whose answers are already recorded.
C[C@H]1c2nn(C)c(-c3cc(F)cc(F)c3)c2CCN1C(=O)c1ncnn1[C@H]1CCNC1 (single isomer, unassigned) [Example 54, hydrochloride] on MAGL (Homo sapiens (Human)) gives log10 IC50 = 2.85

Per the reported MAGL (Homo sapiens (Human)) data, C[C@@H]1c2nn(C)c(-c3cc(F)cc(F)c3)c2CCN1C(=O)c1ccc(CCC2CNC(=O)C2)cc1Cl (stereo partly shown) has log10 IC50 of 3.23

Record for C[C@@H]1c2nn(C)c(-c3cncc(C(F)(F)F)n3)c2CCN1C(=O)c1cc(F)cc(N2CC3(C2)CS(=O)(=O)C3)c1Cl under target or system MAGL (Homo sapiens (Human)): log10 IC50 reported as 3.51

log10 IC50 of CC1c2nn(C)c(-c3cc(F)cc(F)c3)c2CCN1C(=O)c1cc(F)cc(C2=NOC(C)(C)C2)c1Cl (stereo not shown) , assay on MAGL (Homo sapiens (Human)), is 2.59

Bench note, MAGL (Homo sapiens (Human)): entry CC1c2nn(C)c(-c3cc(F)cc(F)c3)c2CCN1C(=O)c1cc(F)cc(C2=CC(Cl)C(=O)N=C2)c1Cl (stereo not shown) , its log10 IC50 = 0.93

# value of log10 IC50, MAGL (Homo sapiens (Human)), item C[C@@H]1c2nn(C)c(-c3cc(Cl)cc(C4(NS(C)(=O)=O)CC4)c3)c2CCN1C(=O)c1cc(F)cc(CCc2c[nH]nn2)c1Cl = 1.43

Form field log10 IC50 for item COc1cccc(C(=O)N2CCc3c(nn(C)c3-c3cc(Cl)cc(C4(S(C)(=O)=O)CC4)c3)[C@@H]2C)c1Cl on MAGL (Homo sapiens (Human)): 1.77

Param item: C[C@H]1c2nn(C)c(-c3cncc(C(F)(F)F)n3)c2CCN1C(=O)c1cc(F)cc(N2CC3(C2)CS(=O)(=O)C3)c1Cl ; param system: MAGL (Homo sapiens (Human)); output log10 IC50: 3.45

The recorded log10 IC50 with MAGL (Homo sapiens (Human)) for C[C@H]1c2nn(C)c(-c3cc(F)cc(F)c3)c2CCN1C(=O)c1cc(F)cc(CCc2c[nH]nn2)c1Cl was 1.63

Reported MAGL (Homo sapiens (Human)) log10 IC50 for item CC1c2nn(C)c(-c3cc(F)cc(F)c3)c2CCN1C(=O)c1cc(F)cc(N2CC(S(C)(=O)=O)C2)c1Cl (stereo not shown) was 1.88

Continuing:
Lab note: molecule CC1c2nn(C)c(-c3cc(F)cc(F)c3)c2CCN1C(=O)c1cc(F)cc(CNC2CNC(=O)C2)c1Cl (stereo not shown) [Example 106, hydrochloride] tested on MAGL (Homo sapiens (Human)); recorded log10 IC50 was 1.09

The observed log10 IC50 for CC1c2nn(C)c(-c3cc(F)cc(F)c3)c2CCN1C(=O)c1cc(F)cc(OCC2CNC(=O)C2)c1Cl (single isomer, unassigned) when tested with MAGL (Homo sapiens (Human)) stands at -0.30

Fill in: MAGL (Homo sapiens (Human)) log10 IC50 for C[C@@H]1c2nn(C)c(-c3cncc(C(F)(F)F)n3)c2CCN1C(=O)c1ncn(-c2ccc[nH]c2=O)n1 = 3.10

====

target: MAGL (Homo sapiens (Human))
Listing: log10 of IC50 of selected compounds
Plainly stated, the numbers are log10 of IC50 given in nM.

Recorded results for 5 compounds are shown here.
// log10 of IC50 (MAGL (Homo sapiens (Human))) for C[C@@H]1c2nn(C)c(-c3cc(F)cc(F)c3)c2CCN1C(=O)c1cc(F)cc(OCC2CNC(=O)O2)c1Cl (single isomer, unassigned) = 3.30

Here C[C@H]1c2nn(C)c(-c3cc(F)cc(F)c3)c2CCN1C(=O)c1cc(F)cc(OC[C@H]2CNC(=O)N2)c1Cl was tested on MAGL (Homo sapiens (Human)), and its log10 of IC50 came to 0.69

# lookup: C[C@@H]1c2nn(C)c(-c3cc(F)cc(F)c3)c2CCN1C(=O)c1cc(F)cc(CCc2cn[nH]c2)c1Cl on MAGL (Homo sapiens (Human)), log10 of IC50 = 2.64

So the reported log10 of IC50 for CNS(=O)(=O)Cc1cc(Cl)cc(-c2c3c(nn2C)[C@H](C)N(C(=O)c2cccc(OC)c2Cl)CC3)c1 , on MAGL (Homo sapiens (Human)), turned out to be 1.80

Record COc1cccc(C(=O)N2CCc3c(nn(C)c3-c3cc(Cl)cc(CS(C)(=O)=O)c3)[C@@H]2C)c1Cl / MAGL (Homo sapiens (Human)), log10 of IC50 recorded as 1.92

New cases:
Record C[C@H]1c2nn(C)c(-c3cc(Cl)cc(C4(NS(C)(=O)=O)CC4)c3)c2CCN1C(=O)c1cc(F)cc(CCc2c[nH]nn2)c1Cl ; system MAGL (Homo sapiens (Human)); log10 of IC50 = 0.25
